target: DPP-IV enzyme (Homo sapiens, UniProt P27487); test: In vitro DPP-IV enzyme inhibition assay (Cayman Chemical kit, item 700210); details: read-out: % Inhibition (at Conc.)
Sequence (P27487 whole entry): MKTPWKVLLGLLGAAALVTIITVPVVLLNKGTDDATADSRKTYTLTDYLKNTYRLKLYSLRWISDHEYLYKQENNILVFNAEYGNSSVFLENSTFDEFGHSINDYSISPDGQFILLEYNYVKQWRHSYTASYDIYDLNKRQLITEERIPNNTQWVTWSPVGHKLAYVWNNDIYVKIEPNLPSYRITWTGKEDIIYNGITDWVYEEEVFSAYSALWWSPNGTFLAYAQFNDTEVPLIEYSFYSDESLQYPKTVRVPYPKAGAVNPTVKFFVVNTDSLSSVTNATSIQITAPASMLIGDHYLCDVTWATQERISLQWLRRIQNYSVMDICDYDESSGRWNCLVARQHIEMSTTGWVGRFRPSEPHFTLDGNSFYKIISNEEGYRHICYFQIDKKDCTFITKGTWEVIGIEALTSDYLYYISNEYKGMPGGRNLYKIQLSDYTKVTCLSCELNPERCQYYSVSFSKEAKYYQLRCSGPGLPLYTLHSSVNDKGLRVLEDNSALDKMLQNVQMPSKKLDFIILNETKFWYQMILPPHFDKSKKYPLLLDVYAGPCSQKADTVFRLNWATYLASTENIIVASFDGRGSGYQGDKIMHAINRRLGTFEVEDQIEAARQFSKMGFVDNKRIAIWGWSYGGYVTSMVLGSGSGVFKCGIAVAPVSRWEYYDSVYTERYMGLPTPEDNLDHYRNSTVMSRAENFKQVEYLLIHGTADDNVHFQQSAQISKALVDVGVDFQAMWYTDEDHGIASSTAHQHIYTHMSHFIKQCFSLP
readout_type: inhibition at 250 µM (%)

compound: O=c1oc2ccc(S(=O)(=O)NCc3ccccc3)cc2cc1Cl [6t]
uom: %
result_value: 88.3

compound: Cc1ccc(NS(=O)(=O)c2ccc3oc(=O)c(Cl)cc3c2)cc1 [6r]
uom: %
result_value: 95.4

compound: O=c1oc2ccc(S(=O)(=O)Nc3nc4ccccc4[nH]3)cc2cc1Cl [6i]
uom: %
result_value: 95.8

compound: O=c1oc2ccc(S(=O)(=O)Nc3ccccc3)cc2cc1Cl [6a]
uom: %
result_value: 93.5

compound: O=c1oc2ccc(S(=O)(=O)Nc3ccncc3)cc2cc1Cl [6d]
uom: %
result_value: 92.4

compound: O=c1oc2ccc(S(=O)(=O)Nc3ccccn3)cc2cc1Cl [6b]
uom: %
result_value: 91.2

compound: O=c1oc2ccc(S(=O)(=O)Nc3cccnc3)cc2cc1Cl [6c]
uom: %
result_value: 90.3

compound: Cc1ccccc1NS(=O)(=O)c1ccc2oc(=O)c(Cl)cc2c1 [6s]
uom: %
result_value: 89.3

###

molecular target: DPP-IV enzyme (Homo sapiens, UniProt P27487)
readout_type: IC50 (µM)

smiles_notation: Cc1ccccc1NS(=O)(=O)c1ccc2oc(=O)c(Cl)cc2c1
measured_on: DPP-IV enzyme (Homo sapiens, UniProt P27487)
uom: µM
IC50: 18.3

smiles_notation: O=c1oc2ccc(S(=O)(=O)Nc3nc4ccccc4[nH]3)cc2cc1Cl
measured_on: DPP-IV enzyme (Homo sapiens, UniProt P27487)
uom: µM
IC50: 11

smiles_notation: O=c1oc2ccc(S(=O)(=O)Nc3ccccc3)cc2cc1Cl
measured_on: DPP-IV enzyme (Homo sapiens, UniProt P27487)
uom: µM
IC50: 14.5

smiles_notation: O=c1oc2ccc(S(=O)(=O)Nc3ccncc3)cc2cc1Cl
measured_on: DPP-IV enzyme (Homo sapiens, UniProt P27487)
uom: µM
IC50: 15.2
